Test system: methicillin-sensitive Staphylococcus epidermidis (MSSE)
Assay: MIC, two-fold agar dilution (CLSI), clinical isolates
Assay type: cell-based
Settings: strain MSSE 15-3
From the text: 1. The invention adopts the two-fold agar dilution method recommended by the operating procedure of antimicrobial susceptibility testing set by American Clinical and Laboratory Standards Institute (CLSI) to determine the Minimum Inhibitory Concentration (MIC) of the test samples against the tested strains.
Endpoint name: MIC (anti-bacterial activity) (µg/mL)
Give your result in µg/mL as a bare value.

CCCC[C@H](CN(O)C=O)C(=O)N1CC2(CC2)C[C@H]1C(=O)Nc1ccc(N2CCOCC2)cc1 0.25
CCCC[C@H](CN(O)C=O)C(=O)N1CC2(CC2)C[C@H]1C(=O)Nc1cnccn1 0.25
O=CN(O)C[C@@H](CC1CCCC1)C(=O)N1CC2(CC2)C[C@H]1C(=O)Nc1cc[nH]n1 2

Proceeding to the next compound to report its MIC (anti-bacterial activity).
Please report the measured MIC (anti-bacterial activity) for `Cc1cc(NC(=O)[C@@H]2CC3(CC3)CN2C(=O)[C@H](CC2CCCC2)CN(O)C=O)no1`
1

---

Listed here: items and their measured Anti-bacterial activity (MIC), strain EFA 15-4.
Test system: Enterococcus faecalis (EFA)
Assay: MIC, two-fold agar dilution (CLSI), clinical isolates
Assay type: cell-based
Conditions: clinical isolate EFA 15-4

Worked examples, 3 compounds total:
CCCC[C@H](CC(=O)NO)C(=O)N1CC2(CC2)C[C@H]1C(=O)Nc1ccno1 > 32 µg/mL
O=C(C[C@@H](CC1CCCC1)C(=O)N1CC2(CC2)C[C@H]1C(=O)Nc1ccc(N2CCOCC2)cc1)NO > 32 µg/mL
O=CN(O)C[C@@H](CC1CCCC1)C(=O)N1CC2(CC2)C[C@H]1C(=O)Nc1nncs1 4 µg/mL

Proceeding to the next compound to report its Anti-bacterial activity (MIC), strain EFA 15-4.
Please report the measured Anti-bacterial activity (MIC), strain EFA 15-4 for `CCCC[C@H](CC(=O)NO)C(=O)N1CC2(CC2)C[C@H]1C(=O)Nc1ccncn1`
> 32 µg/mL

---

System: Escherichia coli (including ESBLs, non-ESBLs)
Assay: MIC, two-fold agar dilution (CLSI), clinical isolates
Type: cell-based
Details: strain ECO− 15-1
Listed here: items and their measured MIC (anti-bacterial activity).
Give your result in µg/mL as a bare value.

Molecule	Test system	Reading unit	MIC (anti-bacterial activity)
Cc1cc(NC(=O)[C@@H]2CC3(CC3)CN2C(=O)[C@H](CC2CCCC2)CN(O)C=O)no1 [Example 39]	Escherichia coli (including ESBLs, non-ESBLs)	µg/mL	32
COC(=O)c1sccc1NC(=O)[C@@H]1CC2(CC2)CN1C(=O)[C@H](CC1CCCC1)CN(O)C=O [Example 34]	Escherichia coli (including ESBLs, non-ESBLs)	µg/mL	128
CCCC[C@H](CN(O)C=O)C(=O)N1CC2(CC2)C[C@H]1C(=O)Nc1ccno1 [Example 17]	Escherichia coli (including ESBLs, non-ESBLs)	µg/mL	16
CCCC[C@H](CN(O)C=O)C(=O)N1CC2(CC2)C[C@H]1C(=O)Nc1nccs1 [Example 22]	Escherichia coli (including ESBLs, non-ESBLs)	µg/mL	32

Proceeding to the next molecule to report its MIC (anti-bacterial activity).
Please report the measured MIC (anti-bacterial activity) for CCCC[C@H](CN(O)C=O)C(=O)N1CC2(CC2)C[C@H]1c1nc2ccccc2n1CCN(C)C [Example 24]
8

---

Test system: Moraxella catarrhalis (BCA)
Test: MIC, two-fold agar dilution (CLSI), clinical isolates
Format: cell-based
Details: clinical isolate BCA 14-8
Endpoint name: Anti-bacterial activity (MIC), strain BCA 14-8 (µg/mL)
Give your result in µg/mL as a bare value.

Worked examples, 4 compounds total:
Compound	Endpoint result
CCCC[C@H](CC(=O)NO)C(=O)N1CC2(CC2)C[C@H]1C(=O)Nc1ncc(C)s1	1
CCCC[C@H](CC(=O)NO)C(=O)N1CC2(CC2)C[C@H]1C(=O)Nc1ccncn1	1
O=C(C[C@@H](CC1CCCC1)C(=O)N1CC2(CC2)C[C@H]1C(=O)Nc1ccc(N2CCOCC2)cc1)NO	8
CCCC[C@H](CC(=O)NO)C(=O)N1CC2(CC2)C[C@H]1C(=O)Nc1cnccn1	4

Consider the compound O=CN(O)C[C@@H](CC1CCCC1)C(=O)N1CC2(CC2)C[C@H]1C(=O)Nc1nccs1 (stereo in doubt) tested on Moraxella catarrhalis (BCA); state its Anti-bacterial activity (MIC), strain BCA 14-8.
0.5

Consider the compound `O=C(C[C@@H](CC1CCCC1)C(=O)N1CC2(CC2)C[C@H]1C(=O)Nc1cnccn1)NO` tested on Moraxella catarrhalis (BCA); state its Anti-bacterial activity (MIC), strain BCA 14-8.
2

Consider the compound `O=CN(O)C[C@@H](CC1CCCC1)C(=O)N1CC2(CC2)C[C@H]1c1nc2ccccc2[nH]1` tested on Moraxella catarrhalis (BCA); state its Anti-bacterial activity (MIC), strain BCA 14-8.
4

Consider the compound `CCCC[C@H](CC(=O)NO)C(=O)N1CC2(CC2)C[C@H]1C(=O)Nc1cc(C)on1` tested on Moraxella catarrhalis (BCA); state its Anti-bacterial activity (MIC), strain BCA 14-8.
2

Consider the compound `O=CN(O)C[C@@H](CC1CCCC1)C(=O)N1CC2(CC2)C[C@H]1C(=O)Nc1nncs1` tested on Moraxella catarrhalis (BCA); state its Anti-bacterial activity (MIC), strain BCA 14-8.
4

Consider the compound `CCCC[C@H](CC(=O)NO)C(=O)N1CC2(CC2)C[C@H]1C(=O)Nc1cccnn1` tested on Moraxella catarrhalis (BCA); state its Anti-bacterial activity (MIC), strain BCA 14-8.
16

---

Tested on: Enterococcus faecalis (EFA)
Assay: MIC, two-fold agar dilution (CLSI), clinical isolates
Format: cell-based
Conditions: strain EFA 15-4
Endpoint name: Anti-bacterial activity (MIC) (µg/mL)
Give your result in µg/mL as a bare value.

Worked examples, 2 compounds total:
Compound	Test system	Reading unit	Anti-bacterial activity (MIC)
Cc1cc(NC(=O)[C@@H]2CC3(CC3)CN2C(=O)[C@@H](CC(=O)NO)CC2CCCC2)no1	Enterococcus faecalis (EFA)	µg/mL	2
C[C@H]1COc2c(N3CCN(C)CC3)c(F)cc3c(=O)c(C(=O)O)cn1c23 [levofloxacin, reference compound]	Enterococcus faecalis (EFA)	µg/mL	1

Please report the measured Anti-bacterial activity (MIC) for `O=C(C[C@@H](CC1CCCC1)C(=O)N1CC2(CC2)C[C@H]1C(=O)Nc1cccnn1)NO`
16

---

Tested on: Enterococcus faecalis (EFA)
Experiment: MIC, two-fold agar dilution (CLSI), clinical isolates
Type: cell-based
Conditions: clinical isolate EFA 15-3
Excerpt: 1. The invention adopts the two-fold agar dilution method recommended by the operating procedure of antimicrobial susceptibility testing set by American Clinical and Laboratory Standards Institute (CLSI) to determine the Minimum Inhibitory Concentration (MIC) of the test samples against the tested strains.
Endpoint name: Anti-bacterial activity (MIC), strain EFA 15-3

CCCC[C@H](CC(=O)NO)C(=O)N1CC2(CC2)C[C@H]1c1nc2ccccc2[nH]1 > 32 µg/mL
CCCC[C@H](CC(=O)NO)C(=O)N1CC2(CC2)C[C@H]1C(=O)Nc1ncc(C)s1 > 32 µg/mL
CCCC[C@H](CC(=O)NO)C(=O)N1CC2(CC2)C[C@H]1C(=O)NC1CC1 > 32 µg/mL
CCCC[C@H](CC(=O)NO)C(=O)N1CC2(CC2)C[C@H]1C(=O)Nc1nc(C(F)(F)F)cs1 8 µg/mL
O=C(C[C@@H](CC1CCCC1)C(=O)N1CC2(CC2)C[C@H]1C(=O)Nc1cnccn1)NO > 32 µg/mL

Please report the measured Anti-bacterial activity (MIC), strain EFA 15-3 for `CCCC[C@H](CC(=O)NO)C(=O)N1CC2(CC2)C[C@H]1C(=O)Nc1ccc(N2CCOCC2)cc1`
> 32 µg/mL

Please report the measured Anti-bacterial activity (MIC), strain EFA 15-3 for `O=CN(O)C[C@@H](CC1CCCC1)C(=O)N1CC2(CC2)C[C@H]1C(=O)Nc1nncs1`
1 µg/mL

---

System: Escherichia coli (including ESBLs, non-ESBLs)
Test: MIC, two-fold agar dilution (CLSI), clinical isolates
Type: cell-based
Conditions: clinical isolate ECO+ 15-1
Listed here: items and their measured Anti-bacterial activity (MIC), strain ECO+ 15-1.
Give your result in µg/mL as a bare value.

Worked examples, 4 molecules total:
O=CN(O)C[C@@H](CC1CCCC1)C(=O)N1CC2(CC2)C[C@H]1c1nc2ccccc2[nH]1 16
CCCC[C@H](CC(=O)NO)C(=O)N1CC2(CCCC2)C[C@H]1C(=O)Nc1ccc(F)cn1 16
O=C(C[C@@H](CC1CCCC1)C(=O)N1CC2(CC2)C[C@H]1C(=O)Nc1ccno1)NO 16
CCCC[C@H](CC(=O)NO)C(=O)N1CC2(CC2)C[C@H]1C(=O)Nc1cnccn1 32

Please report the measured Anti-bacterial activity (MIC), strain ECO+ 15-1 for `CCCC[C@H](CC(=O)NO)C(=O)N1CC2(CC2)C[C@H]1C(=O)Nc1cc(C(C)(C)C)on1`
32

Please report the measured Anti-bacterial activity (MIC), strain ECO+ 15-1 for `O=C(C[C@@H](CC1CCCC1)C(=O)N1CC2(CC2)C[C@H]1C(=O)Nc1nncs1)NO`
32

Please report the measured Anti-bacterial activity (MIC), strain ECO+ 15-1 for `O=C(C[C@@H](CC1CCCC1)C(=O)N1CC2(CC2)C[C@H]1C(=O)Nc1ccncn1)NO`
16

Please report the measured Anti-bacterial activity (MIC), strain ECO+ 15-1 for `O=C(C[C@@H](CC1CCCC1)C(=O)N1CC2(CC2)C[C@H]1C(=O)Nc1ncccc1F)NO`
16

Please report the measured Anti-bacterial activity (MIC), strain ECO+ 15-1 for `CCCC[C@H](CC(=O)NO)C(=O)N1CC2(CCCC2)C[C@H]1C(=O)Nc1cnccn1`
0.125

Please report the measured Anti-bacterial activity (MIC), strain ECO+ 15-1 for `O=CN(O)C[C@@H](CC1CCCC1)C(=O)N1CC2(CC2)C[C@H]1C(=O)Nc1nncs1`
32

Data origin, for the record: patent US10738028B2
